# systemName: EPAC2-CNBD (Homo sapiens)
# Construct: gene RAPGEF4
# Sequence (Q8WZA2 whole entry): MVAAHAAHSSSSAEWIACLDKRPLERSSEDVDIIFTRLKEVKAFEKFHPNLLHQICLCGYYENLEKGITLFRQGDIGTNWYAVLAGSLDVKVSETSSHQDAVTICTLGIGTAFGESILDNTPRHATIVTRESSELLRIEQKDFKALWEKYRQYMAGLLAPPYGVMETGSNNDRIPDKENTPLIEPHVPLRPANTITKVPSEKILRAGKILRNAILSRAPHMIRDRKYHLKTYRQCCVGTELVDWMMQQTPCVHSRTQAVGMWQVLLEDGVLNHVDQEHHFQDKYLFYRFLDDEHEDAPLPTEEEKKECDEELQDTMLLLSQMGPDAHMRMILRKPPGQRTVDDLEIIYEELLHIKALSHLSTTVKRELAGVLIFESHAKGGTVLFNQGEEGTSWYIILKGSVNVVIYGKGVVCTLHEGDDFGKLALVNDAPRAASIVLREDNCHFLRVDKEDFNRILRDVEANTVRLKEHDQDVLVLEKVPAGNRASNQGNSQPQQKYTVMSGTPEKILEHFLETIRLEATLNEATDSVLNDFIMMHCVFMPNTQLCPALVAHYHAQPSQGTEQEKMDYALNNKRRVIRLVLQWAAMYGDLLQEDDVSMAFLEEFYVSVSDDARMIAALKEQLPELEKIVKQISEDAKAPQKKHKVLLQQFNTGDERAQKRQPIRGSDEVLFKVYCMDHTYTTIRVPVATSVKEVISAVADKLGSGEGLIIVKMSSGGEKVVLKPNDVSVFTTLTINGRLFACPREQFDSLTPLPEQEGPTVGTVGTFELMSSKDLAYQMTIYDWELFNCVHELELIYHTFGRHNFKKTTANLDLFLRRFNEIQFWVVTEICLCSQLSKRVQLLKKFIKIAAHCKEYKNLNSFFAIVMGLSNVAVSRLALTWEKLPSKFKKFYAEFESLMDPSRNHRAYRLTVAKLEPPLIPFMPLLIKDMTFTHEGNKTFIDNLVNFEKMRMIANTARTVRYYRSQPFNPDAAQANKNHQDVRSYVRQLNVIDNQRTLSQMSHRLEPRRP
# testDetails: biochemical
# Set-up: 8-NBD-cAMP competition binding to GST-CNBD, fluorescence intensity 480/535 nm, dose response
# experimentalConditions: 8-NBD-cAMP displacement, mean; read-out: Pharmacology assay data / EPAC2 pIC50 (mean) (converted)
endpointName: IC50 (µM)

Known results for compounds:
In [3]: df
Out[3]:
                                   molecule  experimentalresult
0  Cc1ccc(C(=O)c2oc3ccc(CNC(=O)C(=O)O)cc3c2C(C)C)cc1                31.6
1  Cc1ccc(C(=O)c2oc3ccc(CNC(=O)C(=O)O)cc3c2C(C)(C)C)cc1                22.4
2  Cc1ccc(C(=O)c2oc3ccc(CNC(=O)C(=O)O)cc3c2C)cc1                7.94

P. CCc1c(C(=O)c2ccc(C)cc2)oc2ccc(CNC(=O)C(=O)O)cc12
Q. Cc1c(C(=O)c2cccc(Br)c2)oc2ccc(CNC(=O)C(=O)O)cc12
Ask | Please tell me which of the two, P or Q , has the higher reported IC50 value. Mark your selection by writing its label.
Reply | Q

The origin of these recorded values is paper PMC6912754.
